tested on: Staphylococcus aureus; assay: Antimicrobial activity against community-associated methicillin-resistant Staphylococcus aureus USA300; assay type: functional
Friendly reminder: MIC below 0.1 µg/mL is condition met, at or above is condition not met.

| chem.smiles | discrete.label |
| --- | --- |
| Cc1cc(NS(=O)(=O)c2ccc(N)cc2)no1 | condition not met |
| CN(C)[C@@H]1C(O)=C(C(N)=O)C(=O)[C@@]2(O)C(O)=C3C(=O)c4c(O)cccc4[C@@](C)(O)[C@H]3C[C@@H]12 | condition not met |
| O=C(O)c1cn(C2CC2)c2cc(N3CCNCC3)c(F)cc2c1=O | condition not met |
| CO[C@H]1/C=C/O[C@@]2(C)Oc3c(C)c(O)c4c(O)c(c(/C=N/N5CCN(C)CC5)c(O)c4c3C2=O)NC(=O)/C(C)=C\C=C\[C@H](C)[C@H](O)[C@@H](C)[C@@H](O)[C@@H](C)[C@H](OC(C)=O)[C@@H]1C | condition met |
| CC[C@H]1OC(=O)[C@H](C)[C@@H](O[C@H]2C[C@@](C)(OC)[C@@H](O)[C@H](C)O2)[C@H](C)[C@@H](O[C@@H]2O[C@H](C)C[C@H](N(C)C)[C@H]2O)[C@](C)(O)C[C@@H](C)C(=O)[C@H](C)[C@@H](O)[C@]1(C)O | condition not met |
| CCC[C@@H]1C[C@@H](C(=O)N[C@@H]([C@H]2O[C@H](SC)[C@H](O)[C@@H](O)[C@H]2O)[C@H](C)Cl)N(C)C1 | condition not met |

---

tested on: Staphylococcus aureus; assay: Decrease in delta toxin levels in Staphylococcus aureus USA300 at subinhibitory concentrations after 24 hrs by RP-HPLC/ESI- MS; type: functional, organism-based
Active and inactive are the calls of the source. The calls are words filed in the database; no cut-off is given here.
Classes used: active, inactive

| molecule | experimental.system | discrete.label |
| --- | --- | --- |
| Cc1onc(-c2ccccc2)c1C(=O)N[C@@H]1C(=O)N2[C@@H]1SC(C)(C)[C@@H]2C(=O)O [OXACILLIN] | Staphylococcus aureus | active |
| CN(C)[C@@H]1C(O)=C(C(N)=O)C(=O)[C@@]2(O)C(O)=C3C(=O)c4c(O)cccc4[C@@](C)(O)[C@H]3C[C@@H]12 [TETRACYCLINE] | Staphylococcus aureus | inactive |
| CO[C@H]1/C=C/O[C@@]2(C)Oc3c(C)c(O)c4c(O)c(c(/C=N/N5CCN(C)CC5)c(O)c4c3C2=O)NC(=O)/C(C)=C\C=C\[C@H](C)[C@H](O)[C@@H](C)[C@@H](O)[C@@H](C)[C@H](OC(C)=O)[C@@H]1C [RIFAMPIN] | Staphylococcus aureus | inactive |
| CC[C@H]1OC(=O)[C@H](C)[C@@H](O[C@H]2C[C@@](C)(OC)[C@@H](O)[C@H](C)O2)[C@H](C)[C@@H](O[C@@H]2O[C@H](C)C[C@H](N(C)C)[C@H]2O)[C@](C)(O)C[C@@H](C)C(=O)[C@H](C)[C@@H](O)[C@]1(C)O [ERYTHROMYCIN] | Staphylococcus aureus | inactive |

---

tested on: Staphylococcus aureus; test: Antimicrobial activity against community-associated methicillin-resistant Staphylococcus aureus USA300; assay type: functional
The following compounds are shown together with reported MIC values.
measurement.type: MIC (µg/mL)

| chem.smiles | units.label | relational.operator | reported |
| --- | --- | --- | --- |
| Cc1onc(-c2ccccc2)c1C(=O)N[C@@H]1C(=O)N2[C@@H]1SC(C)(C)[C@@H]2C(=O)O | µg/mL | > | 16 |
| C/C(=C\C(=O)OCCCCCCCCC(=O)O)C[C@@H]1OC[C@H](C[C@@H]2O[C@H]2[C@@H](C)[C@H](C)O)[C@@H](O)[C@H]1O | µg/mL | = | 0.12 |
| COc1cc(Cc2cnc(N)nc2N)cc(OC)c1OC | µg/mL | = | 0.25 |
